Assay: NCI Yeast Anticancer Drug Screen. Data for the cln2 rad14 strain (AID 165);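 also: 0% = growth equal to vehicle treated cultures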
Settings: S. cerevisiae cln2 rad14 strain, at 50.0 µM, hits give high values
The panel holds about 79,000 compounds, 15% with a hit somewhere; the sample as a whole holds those more often.
Item-by-item account of growth inhibition
Please respond with the number in % and leave the unit unwritten.

Molecule: O=[N+]([O-])c1ccccc1C(Nc1nncs1)Nc1nncs1
Units Of Measure: %
growth inhibition: -6.05
--
Molecule: Cc1cccc(C)c1NC(=S)NC1CC(C)CC(C)(C)C1 (centres undefined)
Units Of Measure: %
growth inhibition: 57.9
--
Molecule: CC1=CCC(C#N)N(C)C1c1ccccc1 (centres undefined)
Units Of Measure: %
growth inhibition: -48.1

Kindly review the next molecule as well.
Task: May I ask what growth inhibition has been recorded for Nc1nc(Cc2ccccc2)cc(-c2cc(Cc3ccccc3)nc(N)n2)n1 ?
Output: 1.8

Values compiled from PubChem BioAssay (NCI).
